# Test system: EPLC-272H
# RUN DESCRIPTION: relative viability (nuclei count vs DMSO), 5 days (fraction); higher = more cells survive
# CONDITIONS: first compound 0.4 µM
Parameter: relative viability. Scope: all listed entries.
Give the figure only, with no unit attached.

Recorded relative viability, per entry:
[
  {
    "COMPOUND": "C[C@@H]1CN(CC(=O)Nc2ccc3c(c2)Cc2cccc(-c4cc(=O)cc(N5CCOCC5)o4)c2S3)C[C@H](C)O1 + CC1(C)CCC(c2ccc(Cl)cc2)=C(CN2CCN(c3ccc(C(=O)NS(=O)(=O)c4ccc(N[C@H](CCN5CCOCC5)CSc5ccccc5)c(S(=O)(=O)C(F)(F)F)c4)cc3)CC2)C1 [Navitoclax] (partner 0.5 µM)",
    "relative viability": 1.11
  },
  {
    "COMPOUND": "COc1cc(N2CCC(C(N)=O)CC2)ccc1Nc1nc(N)c(Cl)c(Nc2ccccc2S(=O)(=O)C(C)C)n1 [HG-5-88-01] + CCNC(=O)c1noc(-c2cc(C(C)C)c(O)cc2O)c1-c1ccc(CN2CCOCC2)cc1 [Luminespib] (partner 0.01 µM)",
    "relative viability": 0.347
  },
  {
    "COMPOUND": "C[C@@H]1CN(CC(=O)Nc2ccc3c(c2)Cc2cccc(-c4cc(=O)cc(N5CCOCC5)o4)c2S3)C[C@H](C)O1 + Cc1nc(Nc2ncc(C(=O)Nc3c(C)cccc3Cl)s2)cc(N2CCN(CCO)CC2)n1 [Dasatinib] (partner 0.075 µM)",
    "relative viability": 0.319
  }
]

Value wanted: relative viability (EPLC-272H) of entry Clc1ccc(Nc2nnc(Cc3ccncc3)c3ccccc23)cc1 [Vatalanib] + C[C@]1(O)C[C@@H](c2nc(-c3ccc4ccc(-c5ccccc5)nc4c3)c3c(N)nccn32)C1 [Linsitinib] (partner 1 µM) 1.27

* * *

# Tested on: NCI-H1755
# RUN DESCRIPTION: relative viability (nuclei count vs DMSO), 5 days (fraction); higher = more cells survive
# CONDITIONS: first compound 0.1265 µM
MEASURED ATTRIBUTE: relative viability

Previously resolved entries follow.
[
  {
    "MOLECULE": "C[C@@H]1CN(CC(=O)Nc2ccc3c(c2)Cc2cccc(-c4cc(=O)cc(N5CCOCC5)o4)c2S3)C[C@H](C)O1 + CC(C)C[C@H](NC(=O)[C@H](Cc1ccccc1)NC(=O)c1cnccn1)B(O)O [Bortezomib] (partner 0.002 µM)",
    "TARGET": "NCI-H1755",
    "relative viability": 1.01
  },
  {
    "MOLECULE": "Clc1ccc(Nc2nnc(Cc3ccncc3)c3ccccc23)cc1 [Vatalanib] + Cc1nc(NC(=O)N2CCC[C@H]2C(N)=O)sc1-c1ccnc(C(C)(C)C(F)(F)F)c1 [Alpelisib] (partner 2 µM)",
    "TARGET": "NCI-H1755",
    "relative viability": 0.895
  },
  {
    "MOLECULE": "Clc1ccc(Nc2nnc(Cc3ccncc3)c3ccccc23)cc1 [Vatalanib] + Cc1cc(Nc2cc(N3CCN(C)CC3)nc(Sc3ccc(NC(=O)C4CC4)cc3)n2)n[nH]1 [Tozasertib] (partner 0.1 µM)",
    "TARGET": "NCI-H1755",
    "relative viability": 0.612
  }
]

Now for the molecule whose relative viability we want.
Would you kindly share the measured relative viability for COc1cc(N2CCC(C(N)=O)CC2)ccc1Nc1nc(N)c(Cl)c(Nc2ccccc2S(=O)(=O)C(C)C)n1 [HG-5-88-01] + CC1(C)CCC(c2ccc(Cl)cc2)=C(CN2CCN(c3ccc(C(=O)NS(=O)(=O)c4ccc(N[C@H](CCN5CCOCC5)CSc5ccccc5)c(S(=O)(=O)C(F)(F)F)c4)cc3)CC2)C1 [Navitoclax] (partner 0.5 µM) ? 0.991
